Tested on: 598228-144-R-J1-PDC complex spheroids, viability
Test: Anticancer human tumor 598228-144-R-J1-PDC patient-derived serous endometrial adenocarcinoma cell line growth inhibition [CLK]; active means viability on the fitted dose curve at most 10% of control; inactive means the rest
Details: second compound 1 µM; first compound 10 µM
Pick one and only one: active, inactive

Reference set (4 entries):
MOLECULE	GROUP LABEL
Nc1ccn(C2OC(CO)C(O)C2(F)F)c(=O)n1 (stereo not given) + CNC(=O)c1ccc(Nc2nc(OC3CCCC3)c3c(-c4ccc5nc(C)oc5c4)c[nH]c3n2)c(OC)c1	inactive
COc1ccc([C@@H](O)c2cc(-c3ncnc4cc(N5CCOCC5)ccc34)c(F)cc2Cl)nn1 + CNC(=O)c1ccc(Nc2nc(OC3CCCC3)c3c(-c4ccc5nc(C)oc5c4)c[nH]c3n2)c(OC)c1	inactive
Nc1ccccc1NC(=O)c1ccc(CNC(=O)OCc2cccnc2)cc1 + CNC(=O)c1ccc(Nc2nc(OC3CCCC3)c3c(-c4ccc5nc(C)oc5c4)c[nH]c3n2)c(OC)c1	active
CCCS(=O)(=O)Nc1ccc(F)c(C(=O)c2c[nH]c3ncc(-c4ccc(Cl)cc4)cc23)c1F + CNC(=O)c1ccc(Nc2nc(OC3CCCC3)c3c(-c4ccc5nc(C)oc5c4)c[nH]c3n2)c(OC)c1	inactive

Could you now consider this next molecule?
Which outcome did this test record for the molecule CC1COCCN1c1cc(C2(S(C)(=N)=O)CC2)nc(-c2ccnc3[nH]ccc23)n1 (stereo not given) + CNC(=O)c1ccc(Nc2nc(OC3CCCC3)c3c(-c4ccc5nc(C)oc5c4)c[nH]c3n2)c(OC)c1 ?
inactive

###

Reported viability, T/C values are given for each entry in this list.
Tested on: 598228-144-R-J1-PDC complex spheroids, viability
Test: Anticancer human tumor 598228-144-R-J1-PDC cell line growth inhibition [CLK];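 further: spheroids exposed to compounds for seven days before readout; 100% = DMSO vehicle control wells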
Conditions: second compound 0.1 µM; first compound 0.0316 µM; stronger effect = lower value
Write the value in % as a bare number.

Answered cases to consult:
MOLECULE	OUTPUT UNIT	viability, T/C
COc1cccc2c1C(=O)c1c(O)c3c(c(O)c1C2=O)CC(O)(C(=O)CO)CC3OC1CC(N)C(O)C(C)O1 (stereo not given) + CN1CCN(c2cc(C(=O)Nc3cc4cc(-c5cnn(C)c5)ccc4cn3)ccn2)CC1	%	150
O=C(c1cc(Cc2n[nH]c(=O)c3ccccc23)ccc1F)N1CCN(C(=O)C2CC2)CC1 + CNC(=O)c1ccc(Nc2nc(OC3CCCC3)c3c(-c4ccc5nc(C)oc5c4)c[nH]c3n2)c(OC)c1	%	129
CCc1c2c(nc3ccc(O)cc13)-c1cc3c(c(=O)n1C2)COC(=O)[C@]3(O)CC + CNC(=O)c1ccc(Nc2nc(OC3CCCC3)c3c(-c4ccc5nc(C)oc5c4)c[nH]c3n2)c(OC)c1	%	65.2
COc1ccc([C@@H](O)c2cc(-c3ncnc4cc(N5CCOCC5)ccc34)c(F)cc2Cl)nn1 + CN1CCN(c2cc(C(=O)Nc3cc4cc(-c5cnn(C)c5)ccc4cn3)ccn2)CC1	%	123
COc1c(OCCCN2CCOCC2)ccc2c3n(c(=NC(=O)c4cnc(N)nc4)nc12)CCN3 + CN1CCN(c2cc(C(=O)Nc3cc4cc(-c5cnn(C)c5)ccc4cn3)ccn2)CC1	%	36.7

State its viability, T/C for this molecule: CCCS(=O)(=O)Nc1ccc(F)c(C(=O)c2c[nH]c3ncc(-c4ccc(Cl)cc4)cc23)c1F + CN1CCN(c2cc(C(=O)Nc3cc4cc(-c5cnn(C)c5)ccc4cn3)ccn2)CC1
132

State its viability, T/C for this molecule: CCN1CCN(Cc2ccc(Nc3ncc(F)c(-c4cc(F)c5nc(C)n(C(C)C)c5c4)n3)nc2)CC1 + CNC(=O)c1ccc(Nc2nc(OC3CCCC3)c3c(-c4ccc5nc(C)oc5c4)c[nH]c3n2)c(OC)c1
126

State its viability, T/C for this molecule: COc1cccc2c1C(=O)c1c(O)c3c(c(O)c1C2=O)CC(O)(C(=O)CO)CC3OC1CC(N)C(O)C(C)O1 (stereo not given) + CNC(=O)c1ccc(Nc2nc(OC3CCCC3)c3c(-c4ccc5nc(C)oc5c4)c[nH]c3n2)c(OC)c1
122

State its viability, T/C for this molecule: C=C(F)C(=O)N1CCN(c2nc(OCC3CCCN3C)nc3c2CCN(c2cccc4cccc(Cl)c24)C3)CC1CC#N (stereo not given) + CN1CCN(c2cc(C(=O)Nc3cc4cc(-c5cnn(C)c5)ccc4cn3)ccn2)CC1
131

State its viability, T/C for this molecule: CC(CO)NC(=O)c1cc(-c2ccc(Cl)cc2)nn(-c2cnn(C)c2)c1=O (stereo not given) + CNC(=O)c1ccc(Nc2nc(OC3CCCC3)c3c(-c4ccc5nc(C)oc5c4)c[nH]c3n2)c(OC)c1
94.9

State its viability, T/C for this molecule: COC1C=CCC(C)C(C)S(=O)(=O)NC(=O)c2ccc3c(c2)N(CC2CCC21)CC1(CCCc2cc(Cl)ccc21)CO3 (stereo not given) + CNC(=O)c1ccc(Nc2nc(OC3CCCC3)c3c(-c4ccc5nc(C)oc5c4)c[nH]c3n2)c(OC)c1
105

State its viability, T/C for this molecule: C=CC(=O)N1CCN(c2nc(=O)n(-c3c(C)ccnc3C(C)C)c3nc(-c4c(O)cccc4F)c(F)cc23)C(C)C1 (stereo not given) + CNC(=O)c1ccc(Nc2nc(OC3CCCC3)c3c(-c4ccc5nc(C)oc5c4)c[nH]c3n2)c(OC)c1
100

State its viability, T/C for this molecule: CC(=O)O[C@H]1C(=O)[C@@]2(C)[C@H]([C@H](OC(=O)c3ccccc3)[C@]3(O)C[C@H](OC(=O)[C@H](O)[C@@H](NC(=O)c4ccccc4)c4ccccc4)C(C)=C1C3(C)C)[C@]1(OC(C)=O)CO[C@@H]1C[C@@H]2O + CN1CCN(c2cc(C(=O)Nc3cc4cc(-c5cnn(C)c5)ccc4cn3)ccn2)CC1
72.7

State its viability, T/C for this molecule: COc1ccc([C@@H](O)c2cc(-c3ncnc4cc(N5CCOCC5)ccc34)c(F)cc2Cl)nn1 + CNC(=O)c1ccc(Nc2nc(OC3CCCC3)c3c(-c4ccc5nc(C)oc5c4)c[nH]c3n2)c(OC)c1
116

State its viability, T/C for this molecule: COc1c(OCCCN2CCOCC2)ccc2c3n(c(=NC(=O)c4cnc(N)nc4)nc12)CCN3 + CNC(=O)c1ccc(Nc2nc(OC3CCCC3)c3c(-c4ccc5nc(C)oc5c4)c[nH]c3n2)c(OC)c1
51.4

State its viability, T/C for this molecule: CC(Nc1ccc2c(c1)OCCn1cc(N3C(=O)OCC3C(F)F)nc1-2)C(N)=O (stereo not given) + CN1CCN(c2cc(C(=O)Nc3cc4cc(-c5cnn(C)c5)ccc4cn3)ccn2)CC1
87.9

State its viability, T/C for this molecule: C=C(F)C(=O)N1CCN(c2nc(OCC3CCCN3C)nc3c2CCN(c2cccc4cccc(Cl)c24)C3)CC1CC#N (stereo not given) + CNC(=O)c1ccc(Nc2nc(OC3CCCC3)c3c(-c4ccc5nc(C)oc5c4)c[nH]c3n2)c(OC)c1
104
